Listed here are binders together with their documented koff.
Target: T1, human KLRB1 protein extracellular domain (ECD) (human, UniProt Q12918 67-225)
T1 construct: range 67-225; The ELISA and SPR text says only 'human KLRB1 ECD'; also called human KLRB1 ECD; CD161
T1 sequence (looked up): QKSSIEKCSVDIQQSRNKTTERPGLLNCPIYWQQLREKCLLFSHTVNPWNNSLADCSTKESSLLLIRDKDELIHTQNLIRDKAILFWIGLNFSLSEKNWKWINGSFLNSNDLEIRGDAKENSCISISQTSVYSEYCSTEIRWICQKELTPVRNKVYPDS
Assay: SPR, human KLRB1 ECD; format not stated
Form entry: value (s⁻¹) — number only.

The cases that follow already have their koff on record.
10A3D6C109Chum4.1 (antibody, V domains shown, Humanized variant of 10A3D6 made by CDR grafting) VH: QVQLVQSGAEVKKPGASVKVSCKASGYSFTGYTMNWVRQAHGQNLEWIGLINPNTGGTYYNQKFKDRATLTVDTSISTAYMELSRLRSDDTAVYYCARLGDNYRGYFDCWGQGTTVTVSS VL: DIQLTQSPSFLSASVGDRVTITCKASQDVGTAVVWYQQKPGKAPKLLIYWASIRHTGVPSRFSGSGSGTEFTLTISSLQPEDFATYYCQQYSTYLYTFGGGTKLEIK    0.00253
10A3D6hum1.2 (antibody, V domains shown, Fluorescently labelled in the competition assay; dye and attachment site not stated., Humanized antibody; also called 103AD6hum1.2; copies: 2 + 2) VH: QVQLVQSGAEVKKPGASVKVSCKASGYSFTGYTMNWVRQAPGQGLEWMGLINPNTGGTYYNQKFKDRVTMTRDTSISTAYMELSRLRSDDTAVYYCARLGDNYRGYFDSWGQGTTVTVSS VL: DIQLTQSPSFLSASVGDRVTITCKASQDVGTAVVWYQQKPGKAPKLLIDWASIRHTGVPSRFSGSGSGTEFTLTISSLQPEDFADYFCQQYSTYLYTFGGGTKLEIKR    0.000183

Lab note: next binder to report on.
Recorded koff of 10A3D6C109Chum1.5 (antibody, V domains shown, Humanized variant of 10A3D6 made by CDR grafting) VH: QVQLVQSGAEVKKPGASVKVSCKASGYSFTGYTMNWVRQAPGQGLEWMGLINPNTGGTYYNQKFKDRVTMTRDTSISTAYMELSRLRSDDTAVYYCARLGDNYRGYFDCWGQGTTVTVSS VL: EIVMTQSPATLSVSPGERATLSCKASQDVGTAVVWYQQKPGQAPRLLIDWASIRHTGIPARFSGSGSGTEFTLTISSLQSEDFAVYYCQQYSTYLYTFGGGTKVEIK , please.
9e-05
